Target Or Test System: recombinant human arginase I (h-ARG I) (Homo sapiens, UniProt P05089)
Sequence (P05089 whole entry): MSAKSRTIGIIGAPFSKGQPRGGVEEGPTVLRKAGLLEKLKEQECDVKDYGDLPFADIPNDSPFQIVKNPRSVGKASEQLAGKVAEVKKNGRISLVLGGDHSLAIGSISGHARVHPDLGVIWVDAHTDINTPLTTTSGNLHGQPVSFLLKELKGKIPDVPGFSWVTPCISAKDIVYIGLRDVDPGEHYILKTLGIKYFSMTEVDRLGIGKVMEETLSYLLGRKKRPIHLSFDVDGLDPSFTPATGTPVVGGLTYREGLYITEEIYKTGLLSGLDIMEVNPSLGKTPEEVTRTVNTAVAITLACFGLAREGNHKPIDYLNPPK
Protocol: In vitro colorimetric microassay of arginase inhibition on recombinant human arginase I
Assay Metric: IC50 (µM)
One number for each entry, in µM.

Please give the documented IC50 of `O=C(/C=C/c1ccc(O)c(O)c1)NCCc1ccccc1`
60.3

---

Target Or Test System: b-ARG I (Bos taurus, UniProt Q2KJ64)
Construct: commercially-available purified bovine arginase (b-ARG I) instead of animal tissue; purchased MP Biomedicals; host or cells: bovine liver (enzyme purified from tissue)
Sequence (Q2KJ64 1-322): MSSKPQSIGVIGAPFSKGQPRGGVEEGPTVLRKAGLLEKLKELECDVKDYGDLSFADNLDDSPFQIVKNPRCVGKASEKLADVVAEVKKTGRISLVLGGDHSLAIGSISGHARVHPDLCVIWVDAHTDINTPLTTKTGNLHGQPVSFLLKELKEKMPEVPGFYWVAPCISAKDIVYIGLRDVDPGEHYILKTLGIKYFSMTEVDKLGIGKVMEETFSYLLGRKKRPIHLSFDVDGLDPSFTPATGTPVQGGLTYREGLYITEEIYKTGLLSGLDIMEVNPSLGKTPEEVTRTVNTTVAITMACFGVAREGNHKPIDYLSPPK
Protocol: Enzyme kinetic study and determination of Ki values on b-ARG I
Format: biochemical, bovine
Stated Conditions: b-ARG I; Cheng–Prusoff equation, [S] = 14.3 mM L-arginine, Km = 55.5 ± 10.5 µM; read-out: Ki
Field: Ki. Provide a value for each of the compounds that follow.
Express your answer as a number followed by its unit.

N=C(NO)NCC[C@H](N)C(=O)O [nor-NOHA, N^ω-hydroxy-nor-L-arginine, reference compound]
1.3 µM

Now take the following compound into account.
Annotate the compound O=C(/C=C/c1ccc(O)c(O)c1)NCCc1ccccc1 [Compound 1] with its measured Ki.
5.5 µM
